System: H2122
measurement_description: Cell proliferation (colony assay) IC50
Type: cell-based
condition_parameters: Homo sapiens, NCI-H2122; H2122, wild-type SMARCA4
measured_property: pIC50
Here pIC50 is given on a logarithmic scale as minus log10 of the concentration in mol/L.

Reported pIC50, compound Nc1nnc(-c2ccccc2O)cc1N1CCN(Cc2ccc(OCCOCCNc3cccc4c3C(=O)N(C3CCC(=O)NC3=O)C4=O)c(F)c2)CC1 (stereo not shown) : ____ 5.59
